Biological target: T1, monkey GPC3-His protein (monkey)
T1 construct: Bought protein; also called monkey GPC3 protein
Assay: ELISA, monkey GPC3-His coated; antibody 13.33 nM
endpointName: OD450 nm
Provide a numeric answer; units are not to be included.

Worked cases, answers included:
binder | numericReadout
hAb005LH1L1b (antibody, human IgG1, V domains shown, Humanized F3.54.12, H1+L1b) VH: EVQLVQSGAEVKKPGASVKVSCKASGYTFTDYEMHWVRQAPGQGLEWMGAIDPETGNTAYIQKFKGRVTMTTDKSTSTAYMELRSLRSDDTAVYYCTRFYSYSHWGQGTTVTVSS VL: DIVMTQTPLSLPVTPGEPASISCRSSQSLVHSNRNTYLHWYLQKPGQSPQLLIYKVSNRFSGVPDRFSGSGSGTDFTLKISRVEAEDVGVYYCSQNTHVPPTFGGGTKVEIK | 1.16
hAb006LH3L1b (antibody, human IgG1, V domains shown, Humanized F3.38.7, H3+L1b) VH: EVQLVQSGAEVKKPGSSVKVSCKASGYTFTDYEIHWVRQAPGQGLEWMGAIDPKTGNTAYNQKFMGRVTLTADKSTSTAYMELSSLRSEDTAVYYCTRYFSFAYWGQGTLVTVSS VL: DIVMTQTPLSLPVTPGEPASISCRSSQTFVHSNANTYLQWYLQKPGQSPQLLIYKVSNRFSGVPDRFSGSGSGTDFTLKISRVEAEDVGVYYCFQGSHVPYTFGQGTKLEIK | 2.38

Challenge: Which OD450 nm is reported for this binder? hAb001H2L1 (antibody, human IgG1, V domains shown, Humanized F2.169.2, H2+L1) VH: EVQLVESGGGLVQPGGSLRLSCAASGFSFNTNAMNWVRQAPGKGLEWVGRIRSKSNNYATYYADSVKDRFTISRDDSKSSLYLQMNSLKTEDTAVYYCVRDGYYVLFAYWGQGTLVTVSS VL: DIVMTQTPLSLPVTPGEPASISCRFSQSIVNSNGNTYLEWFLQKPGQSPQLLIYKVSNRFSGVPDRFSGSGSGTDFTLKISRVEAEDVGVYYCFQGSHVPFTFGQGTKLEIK
Response given: 2.64

Challenge: Quick one: hAb001H1L1a (antibody, human IgG1, V domains shown, Humanized F2.169.2, H1+L1a) VH: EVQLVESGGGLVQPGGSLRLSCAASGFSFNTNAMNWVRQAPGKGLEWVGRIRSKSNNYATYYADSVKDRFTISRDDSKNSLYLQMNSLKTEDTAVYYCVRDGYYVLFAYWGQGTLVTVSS VL: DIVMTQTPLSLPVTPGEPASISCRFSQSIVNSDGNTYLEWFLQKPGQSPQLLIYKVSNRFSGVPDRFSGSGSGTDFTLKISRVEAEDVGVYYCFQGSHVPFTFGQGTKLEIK
Response given: 2.37

Challenge: Quick one: hAb007LH2L1b (antibody, human IgG1, V domains shown, Humanized F3.81.19, H2+L1b) VH: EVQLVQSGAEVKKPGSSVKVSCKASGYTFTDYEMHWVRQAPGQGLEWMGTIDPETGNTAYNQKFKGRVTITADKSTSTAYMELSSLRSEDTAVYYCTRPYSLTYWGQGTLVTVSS VL: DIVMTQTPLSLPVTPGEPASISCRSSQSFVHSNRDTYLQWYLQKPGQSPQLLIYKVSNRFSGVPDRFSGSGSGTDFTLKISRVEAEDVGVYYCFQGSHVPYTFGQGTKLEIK
Response given: 2.56
